Test system: U251 CNS
Test: NCI-60 one-dose screen, 48 h (100 = growth as untreated, 0 = no growth, -100 = all killed)
Conditions: 10 µM unless noted
This is part of a sample that, as a whole, favours compounds with a hit. Of some 83,000 tested, about 20% had one in any assay.
Exam item: assign True to entries whose growth is below 50% and False to entries at or above 50%. Note that a value of exactly 50% receives False.

>  <COMPOUND>
COc1ccc(C(=O)Nc2ccc3nc(N4CCCCC4)cc(C)c3c2)cc1OC

>  <LABEL_CLASS>
False

$$$$

Input: In the record for NCCCNc1nc2ccccc2c2c(=O)c3cc(F)ccc3sc12 , is growth less than 50%?
Output: True

Input: And then CN(C)/C=C1\SC(=Nc2ccc(Cl)cc2)NC1=O , what is it?
Output: False

* * *

Tested on: BT-549 breast
Experiment: NCI-60 one-dose screen, 48 h
Settings: 10 µM unless noted
The panel holds about 83,000 compounds, 20% with a hit somewhere; the sample as a whole holds those more often. Activity calls are given as the source filed them. Rule for the calls: active = growth percent below 10; inactive = the rest.
Returns: one label drawn from 1 (yes) (active), 0 (no) (inactive)

Input: What call does the record list for Oc1ccc(-c2nc(-c3ccc4oc5ccc(-c6[nH]c(-c7ccc(O)cc7)nc6-c6ccccc6)cc5c4c3)c(-c3ccccc3)[nH]2)cc1 ?
Output: 0 (no)

Input: Same lookup for CCN(CC)CCNC(=O)C(Cl)=C1C(Cl)=C(Cl)C(Cl)=C1Cl , please.
Output: 0 (no)

Input: Here is the next compound: COc1cc(C(C)n2cc(-c3ccccc3)nn2)ccc1OC1CCCCC1 (centres undefined)
Output: 0 (no)

Input: Same question for O=C(/C=C/c1ccc(Cl)cc1)c1ccc(Nc2nc(NCCO)nc(Nc3ccc(Cl)cc3)n2)cc1 please.
Output: 0 (no)

Input: Can you handle COc1cccc(C2=NN3C(C2)c2ccccc2OC3c2ccc(/C=C3\SC(=O)NC3=O)cc2)c1 (centres undefined) next?
Output: 0 (no)

Input: Cool, now O=C(N/N=C/c1ccccc1Cl)C(=O)Nc1cccc(C(F)(F)F)c1
Output: 0 (no)

Input: Lookup O=C(NCc1ccco1)C1CN(c2ccc(Cl)cc2)N(c2ccc(Cl)cc2)C1=O (centres undefined)
Output: 0 (no)

Input: Now this one: O=c1cc(NC2CCN(CCCc3ccccc3)CC2)c2cc(Cl)ccc2o1
Output: 0 (no)

Input: Entry O=S1(=O)CCN(Cc2ccccc2)CC1 please
Output: 0 (no)

Input: // query: Cc1ccc(N=NC2C(=O)N(c3ccc(Cl)cc3)N(c3ccc(Cl)cc3)C2=O)cc1
Output: 0 (no)

Input: Repeat for the following compound: CCOC(=O)c1ccc2[nH]c(-c3ccccc3)cc(=O)c2c1
Output: 0 (no)

Input: Same for CCOC(=O)c1sc(-c2ccc(OS(=O)(=O)c3ccccc3[N+](=O)[O-])c(C=O)c2)nc1C
Output: 0 (no)

Input: Now consider COc1ccc2occ(C3=C(c4c[nH]c5ccccc45)C(=O)NC3=O)c2c1 and answer again.
Output: 0 (no)

* * *

A collection of molecules and their measured growth
System: RPMI-8226 leukemia
Experiment: NCI-60 one-dose screen, 48 h (100 = growth as untreated, 0 = no growth, -100 = all killed)
Details: 10 µM unless noted
Compounds without any hit were thinned out: in the full panel of roughly 83,000, 20% have a hit. Active and inactive are the calls of the source. How the source made its calls: active means growth percent below 10; inactive means the rest.

These solved cases illustrate the format of a correct answer.
>  <MOLECULE>
COc1cccc(C(=O)NC(c2ccc(C)cc2)c2cc(Cl)c3cccnc3c2O)c1 (centres undefined)

>  <PROPERTY>
growth

>  <EXPERIMENTAL_VALUE>
15.5% (inactive)

$$$$
>  <MOLECULE>
CC1=CCC(OC(=O)C(C)(C)CCC(O)(C(=O)OC2(C(C)C)CCC3(C)OC3C2)C(C)C)(C(C)C)CC1 (centres undefined)

>  <PROPERTY>
growth

>  <EXPERIMENTAL_VALUE>
-37.8% (active)

$$$$
>  <MOLECULE>
O=c1oc2ccc(Br)cc2c(=O)n1-c1ccc(Br)cc1F

>  <PROPERTY>
growth

>  <EXPERIMENTAL_VALUE>
-13.8% (active)

$$$$
>  <MOLECULE>
O=C1/C(=C\c2ccc[nH]2)c2ccccc2N1c1ccccc1

>  <PROPERTY>
growth

>  <EXPERIMENTAL_VALUE>
94.4% (inactive)

$$$$
>  <MOLECULE>
Cc1ccc(Cc2cnc(NC(=O)CN3C(=O)/C(=C\c4ccccc4)SC3=S)s2)cc1

>  <PROPERTY>
growth

>  <EXPERIMENTAL_VALUE>
105% (inactive)

$$$$

Input: Fill in the blank: the reported growth of O=C(Nc1ccc(Cl)cc1F)c1cc(F)ccc1O is ____.
Output: -23% (active)

Input: Likewise for CCOC(=O)c1c(Cl)c2c(n1Cc1ccccc1)-c1oncc1CCC2 ?
Output: 50.6% (inactive)

Input: And for O=C(Nc1ccc(I)cc1F)c1cc(Cl)ccc1O ?
Output: -29.3% (active)

Input: And the next one, COc1ccc(N(C)c2nc(N)nc3sc4c(c23)CCCC4)cc1 ?
Output: 25.3% (inactive)

Input: // same read-out, input: CCCN1CCN(c2ccc3nc(-c4ccc5nc(-c6cc(OC)ccc6OC)[nH]c5c4)[nH]c3c2)CC1
Output: -17% (active)

Input: Do the same for COC(=O)C1=Nc2ccc(F)cc2/C1=C/c1sc(=S)[nH]c1O please
Output: -9.01% (active)

Input: What about CC[C@]1(O)C[C@@H]2CN(CCc3c([nH]c4ccccc34)[C@@](C(=O)OC)(c3cc4c(cc3OC)N(C)[C@H]3[C@@](O)(C(=O)OC)[C@H](OC(C)=O)[C@]5(CC)C=CCN6CC[C@]43[C@@H]65)C2)C1 ?
Output: 11.3% (inactive)

Input: What do you get for Nc1ccc(-c2nc3cc(Oc4ccc(Oc5ccc6[nH]c(-c7ccc(N)cc7)nc6c5)cc4)ccc3[nH]2)cc1 ?
Output: 101% (inactive)

Input: Repeat with O=C(c1ccccc1)N(CCc1ccc(Cl)cc1)C(=S)N(C(=O)c1ccccc1)c1ccccc1
Output: -27% (active)

Input: What about CCOc1ccc(Nc2ccnc3cc(Cl)ccc23)cc1 ?
Output: -14.1% (active)

Input: # iterate: O=C(/C=C/c1ccc(F)cc1)c1ccc(Nc2nc(NCCO)nc(Nc3ccc(Cl)cc3)n2)cc1
Output: 1.78% (active)

Input: And then NC(=O)CSc1nc(-c2ccc(F)cc2)cc(-c2ccco2)n1 , what is it?
Output: 98.5% (inactive)

Input: Query N#Cc1c(N)nc2c(c1N)C(c1ccc(F)cc1)c1ccc(N)cc1O2 (centres undefined) next
Output: 103% (inactive)

Input: Would you mind doing O=C1NC(=O)C(=Cc2cn(Cc3cn(Cc4ccc(Cl)cc4Cl)nn3)c3ccccc23)C(=O)N1 as well?
Output: 83% (inactive)

* * *

Test system: SN12C renal
Experiment: NCI-60 one-dose screen, 48 h (100 = growth as untreated, 0 = no growth, -100 = all killed)
Settings: 10 µM unless noted
This is part of a sample that, as a whole, favours compounds with a hit. Of some 83,000 tested, about 20% had one in any assay.
PROPERTY: growth (%)
Report only the number, with the unit % understood.

Some compounds with known growth results, for comparison:
>  <COMPOUND>
CN(O)c1nc(N(C)O)nc(N2CCOCC2)n1

>  <SYSTEM>
SN12C renal

>  <PROPERTY>
growth

>  <EXPERIMENTAL_VALUE>
53.7

$$$$
>  <COMPOUND>
COc1ccc2[nH]c(O)c(N=NC(=O)c3oc4ccccc4c3C)c2c1

>  <SYSTEM>
SN12C renal

>  <PROPERTY>
growth

>  <EXPERIMENTAL_VALUE>
34.9

$$$$
>  <COMPOUND>
O=C1/C(=C/c2ccc(O)cc2)COc2ccc(O)cc21

>  <SYSTEM>
SN12C renal

>  <PROPERTY>
growth

>  <EXPERIMENTAL_VALUE>
96.7

$$$$
>  <COMPOUND>
CN1C(=O)N(C)C2C1NN=c1s/c(=C\c3c[nH]c4ccccc34)c(=O)n12 (stereo not given)

>  <SYSTEM>
SN12C renal

>  <PROPERTY>
growth

>  <EXPERIMENTAL_VALUE>
35.4

$$$$
>  <COMPOUND>
NC(CCl)=NCCC[C@H](N)C(=O)O

>  <SYSTEM>
SN12C renal

>  <PROPERTY>
growth

>  <EXPERIMENTAL_VALUE>
93.3

$$$$

Input: What growth value was documented for this compound, CC1=C(C(=O)OCC2CCN(C(=O)OC(C)(C)C)CC2)[C@@H](c2cccc(C#N)c2)C2=C(CC(C)(C)CC2=O)N1 ?
Output: 42.7

Input: Also Nc1nc(N)c2c(n1)NC1(C=C(O)c3ccccc31)C1=C(N2)c2ccccc2C1=O (stereo not given) , if possible.
Output: 102

Input: Query COc1cc2nc(-c3cnc(N(C)C)nc3)nc(NC3CCN(Cc4ccccc4)CC3)c2cc1OC next
Output: -87.2

Input: Can you check O=C(Nc1ccc(N2CCNCC2)cn1)c1[nH]ncc1Nc1ncnc2sc3c(c12)CCC3 next?
Output: 53.6

Input: Then O=C(CN1C=NC2C(N3CCOCC3)=NC=NC21)c1ccc(Br)cc1 (stereo not given) ?
Output: 98.3

Input: Then what about the compound Cc1ccc2[nH]c(=O)cc(-n3nncc3Cn3c4ccccc4c4ccccc43)c2c1 ?
Output: 101

Input: Next compound up: COc1nc2c(c(=O)n1C)N=C1c3ccccc3C(=O)C1C(c1ccccc1)N2 (stereo not given)
Output: 95.4

Input: Next compound up: CC1=C(C(=O)OCC2CCN(C(=O)OC(C)(C)C)CC2)[C@H](c2cccc(C#N)c2)C2=C(CC(C)(C)CC2=O)N1
Output: 52.9

Input: Nc1ccc(-c2nc3cc(Oc4ccc(Oc5ccc6[nH]c(-c7ccc(N)cc7)nc6c5)cc4)ccc3[nH]2)cc1 ?
Output: 90.4

Input: For COc1ccc(N2C(=O)CC(c3cc(OC)c(OC)c(OC)c3)C3C2=NC(=O)N3C)cc1 (stereo not given) then?
Output: 102
